target: full length human TREX1 (Homo sapiens, UniProt Q9NSU2); construct: N-terminally His-Tev tagged full length human TREX1; made in house; host or cells: E. coli; assay: hTREX1 Biochemical Assay (fluorescence, dsDNA substrate degradation); details: biochemical, read-out: hTREX1 IC50
Sequence (Q9NSU2 whole entry): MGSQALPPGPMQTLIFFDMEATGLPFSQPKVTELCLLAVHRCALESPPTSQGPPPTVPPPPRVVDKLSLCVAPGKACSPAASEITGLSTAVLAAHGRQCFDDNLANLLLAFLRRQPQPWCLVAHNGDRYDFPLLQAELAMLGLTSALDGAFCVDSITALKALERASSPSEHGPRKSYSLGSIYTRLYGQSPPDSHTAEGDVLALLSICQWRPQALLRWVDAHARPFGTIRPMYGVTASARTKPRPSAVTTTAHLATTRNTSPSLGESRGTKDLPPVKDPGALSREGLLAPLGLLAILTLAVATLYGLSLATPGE

| COMPOUND | SYSTEM | IC50 |
| --- | --- | --- |
| CC(c1nc(C(=O)Nc2cnoc2)c(O)c(=O)n1C)C(c1cnn(C2COC2)c1)c1ccccc1C#N (single isomer, unassigned) [Example 106 D1E2] | full length human TREX1 (Homo sapiens, UniProt Q9NSU2) | > 10 nM |
| Cc1nnc(C(c2ccccc2Cl)C(C)c2nc(C(=O)Nc3cnoc3)c(O)c(=O)n2C)o1 (single isomer, unassigned) [Example 156 D2E2] | full length human TREX1 (Homo sapiens, UniProt Q9NSU2) | 1 to 10 nM |
| CCn1cc(C(c2cc(F)ccc2C#N)C(C)c2nc(C(=O)Nc3cnoc3)c(O)c(=O)n2C)cn1 (single isomer, unassigned) [Example 17 D2E2] | full length human TREX1 (Homo sapiens, UniProt Q9NSU2) | > 10 nM |
| Cc1c(C(c2ccccc2C#N)C(C)c2nc(C(=O)Nc3cnoc3)c(O)c(=O)n2C)cnn1C (single isomer, unassigned) [Example 4 D2E2] | full length human TREX1 (Homo sapiens, UniProt Q9NSU2) | 1 to 10 nM |
| Cc1cc(C(c2cc(F)ccc2C#N)C(C)c2nc(C(=O)Nc3cnoc3)c(O)c(=O)n2C)nn1C (single isomer, unassigned) [Example 112 D2E2] | full length human TREX1 (Homo sapiens, UniProt Q9NSU2) | > 10 nM |
| CC(c1nc(C(=O)Nc2cnoc2)c(O)c(=O)n1C)C(c1cnn(C)c1)c1c(C#N)cccc1C#N (single isomer, unassigned) [Example 19 D1E1] | full length human TREX1 (Homo sapiens, UniProt Q9NSU2) | > 10 nM |
